Sourced from patent US20150307617A1

- system: T1, Human OX40 (Sino Biological Inc) (human, UniProt P43489 29-216, limits assumed)
- T1 construct: Bought soluble protein used as SPR analyte; also called huOX40
- T1 sequence: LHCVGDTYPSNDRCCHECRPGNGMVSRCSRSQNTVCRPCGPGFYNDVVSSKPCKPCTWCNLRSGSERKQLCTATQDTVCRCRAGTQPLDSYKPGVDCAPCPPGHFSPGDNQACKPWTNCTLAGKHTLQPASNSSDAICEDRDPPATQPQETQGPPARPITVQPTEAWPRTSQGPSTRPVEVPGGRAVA
- test-description: SPR (Biacore), antibody captured via anti-human Fc, huOX40 analyte
Kindly state Kd for each of the entries shown.

Data request: What value of Kd has been recorded for this entry: 1A7.gr.SGDS (antibody, V domains shown) VH: EVQLVQSGAEVKKPGASVKVSCKASGYTFTDSYMSWVRQAPGQGLEWIGDMYPDSGDSSYNQKFRERVTITRDTSTSTAYLELSSLRSEDTAVYYCVLAPRWYFSVWGQGTLVTVSS VL: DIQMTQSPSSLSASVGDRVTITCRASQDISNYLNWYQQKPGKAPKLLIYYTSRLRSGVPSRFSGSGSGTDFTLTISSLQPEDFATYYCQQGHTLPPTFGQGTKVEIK
Data returned: 993 pM

Data request: Consider next the binder 1A7.gr.DANADA (antibody, V domains shown) VH: EVQLVQSGAEVKKPGASVKVSCKASGYTFTDAYMSWVRQAPGQGLEWIGDMYPDNADASYNQKFRERVTITRDTSTSTAYLELSSLRSEDTAVYYCVLAPRWYFSVWGQGTLVTVSS VL: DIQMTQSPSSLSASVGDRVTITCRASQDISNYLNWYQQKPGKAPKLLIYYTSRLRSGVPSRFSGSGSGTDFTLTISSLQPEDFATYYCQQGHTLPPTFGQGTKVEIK in the same way.
Data returned: 557 pM

Data request: Consider next the binder 1A7.gr.NADS (antibody, V domains shown) VH: EVQLVQSGAEVKKPGASVKVSCKASGYTFTDSYMSWVRQAPGQGLEWIGDMYPDNADSSYNQKFRERVTITRDTSTSTAYLELSSLRSEDTAVYYCVLAPRWYFSVWGQGTLVTVSS VL: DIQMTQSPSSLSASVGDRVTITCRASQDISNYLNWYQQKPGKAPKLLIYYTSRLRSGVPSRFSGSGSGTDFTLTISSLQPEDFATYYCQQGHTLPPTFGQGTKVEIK in the same way.
Data returned: 442 pM
